# targetDesc: Nuclear receptor ROR-gamma (Mus musculus) (UniProt P51450)
# Sequence (P51450 whole entry, looked up): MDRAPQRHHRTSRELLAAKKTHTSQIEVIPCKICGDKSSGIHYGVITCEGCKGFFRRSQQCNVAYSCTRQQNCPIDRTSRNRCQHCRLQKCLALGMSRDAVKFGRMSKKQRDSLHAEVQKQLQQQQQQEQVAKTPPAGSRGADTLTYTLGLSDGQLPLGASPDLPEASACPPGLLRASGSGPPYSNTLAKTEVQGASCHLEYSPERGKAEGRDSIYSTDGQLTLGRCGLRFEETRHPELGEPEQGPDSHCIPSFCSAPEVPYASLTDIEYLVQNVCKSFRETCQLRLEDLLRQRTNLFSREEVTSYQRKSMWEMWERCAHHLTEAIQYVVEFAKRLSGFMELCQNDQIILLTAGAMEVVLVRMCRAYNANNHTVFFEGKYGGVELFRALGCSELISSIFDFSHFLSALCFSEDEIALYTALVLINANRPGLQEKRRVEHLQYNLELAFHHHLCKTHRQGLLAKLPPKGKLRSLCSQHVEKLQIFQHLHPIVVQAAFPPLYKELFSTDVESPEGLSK
# assayMethodText: qHTS for inhibitors of ROR gamma transcriptional activity; also: nearly all actives have a fitted effect of over 60% in size
# assaySetup: Drosophila S2 Gal4-RORgamma UAS-luciferase reporter, 20 h; series mostly up to 53.6 µM
About 17,000 (5.5%) of roughly 310,000 compounds were called active. About 11% were inconclusive and are not listed. Calls follow the shape of the dose curve; as a rule, active = well fitted inhibition curve with a large enough effect; inconclusive = small, poorly fitted or top-dose-only effect, or effect the other way; inactive = no such curve, though single readings can be large or run the other way. Many of the other results were omitted from the sample, so actives are more common in it than they were.
Respond with a class label; see active, inactive

Inquiry: Each molecule tested received a call. Report the one for COc1cc(Cl)c(C)cc1NC(=O)CN1CCCCCC1 .
Reply text: inactive

Inquiry: What classification did O=C(CSc1nc(C2CC2)nc2ccccc12)Nc1cccc(O)c1 end up with in this test?
Reply text: inactive

Inquiry: GET /call?item= CC(C)c1ccc(NC2CCCN(C(=O)c3ccncc3)C2)cc1 (stereo not drawn) returns the recorded outcome of this test.
Reply text: active

Inquiry: Recorded test call requested for COc1ccc(-c2cn3ccc(C)cc3n2)cc1
Reply text: active

Inquiry: Hi team, can someone confirm the assay call for COc1ccc(-c2cn3ccsc3n2)cc1 ?
Reply text: inactive

Inquiry: Tell me the assay call for OCCNc1nc2ccccc2[nH]1 please.
Reply text: inactive

Inquiry: Returns: the outcome recorded for O=C(COc1ccc2c3c(c(=O)oc2c1)CCCC3)NCC(O)c1ccccc1 (stereo not drawn) in this assay.
Reply text: inactive

Inquiry: Look up the recorded call for Cc1cc(-c2nnc(SCC(=O)Nc3ccc(S(N)(=O)=O)cc3)n2N)n[nH]1 in this test.
Reply text: inactive

Inquiry: # lookup: test call for CC(C)Cn1c(=O)c2ccccc2n2c(CCC(=O)NCc3ccccn3)nnc12
Reply text: inactive

Inquiry: Given COc1ccccc1C(=O)OCC(=O)NCCNC(=O)COC(=O)c1ccccc1OC , state the outcome it received in this test.
Reply text: inactive

Inquiry: Would you mind telling me which call this test gave COc1cc(NC(=S)N2CCCC(C)C2)cc(OC)c1OC (stereo not drawn) ?
Reply text: inactive

Inquiry: Just curious, what result did COCCn1cnc2c1c(=O)n(CC(=O)NN)c(=O)n2Cc1ccccc1 get here?
Reply text: inactive

Inquiry: Could you please tell me the result logged for Cc1cc(C)cc(C(=O)OCC(=O)NCCNC(=O)COC(=O)c2cc(C)cc(C)c2)c1 in this assay?
Reply text: active

Inquiry: In this assay, the call recorded for CC(=O)c1ccc(S(=O)(=O)N(C)CCCC(=O)N(C)Cc2ccccc2F)cc1 was what?
Reply text: inactive

Inquiry: Outcome? CN(CC1CCCN(CCc2cccc(C(F)(F)F)c2)C1)C(=O)c1ccc2nc[nH]c2c1 (stereo not drawn)
Reply text: inactive

Inquiry: Call for entry CC(C)N(C(=O)Cn1cc(S(=O)(=O)CC(=O)N2CCOCC2)c2ccccc21)C(C)C :
Reply text: inactive

Inquiry: In this assay, the call recorded for O=S1(=O)N=C(N(CCO)/N=C/c2ccccc2F)c2ccccc21 was what?
Reply text: inactive

Inquiry: // param item: Cc1ccc(CN(CC(=O)NC2CCCCC2)C(=O)c2csnn2)cc1 ; yields the recorded call
Reply text: inactive

Inquiry: Tell me the assay call for COc1cc(NC(=S)N2CCCC(C)C2)c(OC)cc1Cl (stereo not drawn) please.
Reply text: active

Inquiry: Please let me know the test result on file for CCN(CC)c1ccc(C(=O)Nn2c(C)nc3ccccc3c2=O)cc1 .
Reply text: inactive

Inquiry: // outcome(item) with item = Nc1cc(N)nc(SCc2cccc(F)c2)n1
Reply text: inactive

Inquiry: Please state the recorded outcome for this molecule: CC(=O)N1c2ccc(S(=O)(=O)NCCC(=O)N(C)C3CCCCC3)cc2CC1C (stereo not drawn)
Reply text: inactive

Inquiry: Record request — test call for Cc1noc(C)c1CCC(=O)N1CCCC(CO)(Cc2ccccc2)C1 (stereo not drawn)
Reply text: inactive

###

# targetDesc: Nuclear receptor ROR-gamma (Mus musculus) (UniProt P51450)
# assayMethodText: qHTS for inhibitors of ROR gamma transcriptional activity; also: nearly all actives have a fitted effect of over 60% in size
# assaySetup: Drosophila S2 Gal4-RORgamma UAS-luciferase reporter, 20 h; series mostly up to 53.6 µM
Out of some 310,000 compounds screened, about 17,000 (5.5%) were called active. Not shown: some 11% with an inconclusive outcome. The call rests on the fitted dose curve; in most records, active means well fitted inhibition curve with a large enough effect; inconclusive means small, poorly fitted or top-dose-only effect, or effect the other way; inactive means no such curve, though single readings can be large or run the other way. The full list was thinned out, with actives kept by preference.
Result category, one only: active, inactive

Inquiry: How did this test come out for CC(=O)Nc1ccc(S(=O)(=O)Nc2cc(C)cn(Cc3ccc(C)cc3)c2=O)cc1 ?
Reply text: inactive

Inquiry: What did this assay record as the result for CC(=O)Nc1ccc(NC(=O)CN2C(=O)COc3ccc(S(=O)(=O)N4CCCCC4)cc32)cc1 ?
Reply text: inactive

Inquiry: For this compound, state the assay outcome: O=C(CN(CC1CCCO1)C(=O)CNS(=O)(=O)c1ccc(Cl)cc1)NCc1ccccc1 (configuration not stated)
Reply text: inactive

Inquiry: Dear all, I need the recorded test outcome for COC(=O)c1cccnc1NC(=S)NC(C)C , thank you.
Reply text: active

Inquiry: # outcome recorded in this test, key = CCc1ccccc1N(CC(=O)NCC1CCCO1)C(=O)CCC(=O)Nc1nccs1 (configuration not stated)
Reply text: inactive

Inquiry: Test call, this compound: O=C(CN1C(=O)c2cccnc2Oc2ccc(Cl)cc21)Nc1ccc(F)cc1
Reply text: inactive

Inquiry: What outcome does the record of this test show for Cc1c(C(=O)NC2CCCCC2)oc2ccccc12 ?
Reply text: inactive

Inquiry: Test call for this compound, please: COc1ccccc1NC(=O)CCSc1nnc(-c2ccc(O)cc2)o1
Reply text: active

Inquiry: Check the results log: what was the call for O=C(NCc1ccc2c(c1)OCO2)C(=O)NCC1OCCN1S(=O)(=O)c1ccc(F)cc1 (configuration not stated) ?
Reply text: inactive

Inquiry: // param item: COC(=O)Cc1cnc(NC(=O)CSc2nc(C(C)C)cc(=O)[nH]2)s1 ; yields the recorded call
Reply text: inactive

Inquiry: Called result for COc1ccc(NC(=O)CSc2nncc(=O)n2N)cc1OC
Reply text: inactive

Inquiry: Which outcome was assigned to Cc1[nH]n(C(N)=S)c(=O)c1N=Nc1ccc(Cl)cc1Cl in this test?
Reply text: active

Inquiry: For this compound, state the assay outcome: C=CCc1ccccc1OCC(O)CN1CCN(CCO)CC1 (configuration not stated)
Reply text: inactive

Inquiry: Hi team, can someone confirm the assay call for COc1cc2ccccc2cc1C(=O)Nc1ccccc1C ?
Reply text: inactive

Inquiry: Called result for COC(=O)C1=CN(c2ccc(F)c(F)c2)C=C(C(=O)OC)C1c1ccc([N+](=O)[O-])cc1
Reply text: inactive

Inquiry: Check the results log: what was the call for Cc1[nH]n(-c2cccc(Cl)c2)c(=O)c1-c1ccc(Cl)cc1 ?
Reply text: inactive

Inquiry: GET /call?item= COc1ccc(-n2cc(-c3ccccc3)c3c(=S)nc[nH]c32)cc1 returns the recorded outcome of this test.
Reply text: active

Inquiry: Hello, I am checking results. What call was entered for O=c1[nH]cnc2c1c(-c1ccccc1)cn2-c1ccc(F)cc1 ?
Reply text: inactive

Inquiry: Write down the call the test reported for this compound. Item: COc1cccc(CNC(=O)CCC2CCCN(C(=O)c3ccc(F)c(Cl)c3)C2)c1 (configuration not stated)
Reply text: inactive

Inquiry: What outcome does the record of this test show for Cc1ccc(N=Nc2c(C)[nH]n(-c3ccccc3)c2=O)cc1 ?
Reply text: inactive

Inquiry: Per the records of this test, what outcome belongs to CCc1ccccc1NC(=O)CSc1nnc(-c2ccncc2)o1 ?
Reply text: inactive

Inquiry: Check the results log: what was the call for COCCN(C(=O)CCC(=O)Nc1nccs1)C(C(=O)NCCC(C)C)c1ccc(F)cc1 (configuration not stated) ?
Reply text: inactive

###

# targetDesc: Nuclear receptor ROR-gamma (Mus musculus) (UniProt P51450)
# assayMethodText: qHTS for inhibitors of ROR gamma transcriptional activity; also: nearly all actives have a fitted effect of over 60% in size
# assaySetup: Drosophila S2 Gal4-RORgamma UAS-luciferase reporter, 20 h; series mostly up to 53.6 µM
The whole screen tested about 310,000 compounds, of which about 17,000 (5.5%) were called active. About 11% were inconclusive and are not listed. Calls follow the shape of the dose curve; as a rule, active = well fitted inhibition curve with a large enough effect; inconclusive = small, poorly fitted or top-dose-only effect, or effect the other way; inactive = no such curve, though single readings can be large or run the other way. What follows is part of a selection rich in actives, with near analogues and random picks from the rest.
The reply should name one outcome from t = active, f = inactive

Inquiry: Per the records of this test, what outcome belongs to COc1ccc(N2CC(C(=O)N[C@@H](C)C(=O)N3CCCCC3)CC2=O)cc1 (some centres not stated) ?
Reply text: f

Inquiry: Which outcome was entered for the compound COCCCNc1nc2c(-c3cccc(C)c3)nnn2c2ccc(Cl)cc12 in this test?
Reply text: f

Inquiry: Record lookup: outcome of this test for CC1CC2=C(CC1/C=N/NC(N)=S)C(C)(C)CCC2 (configuration not stated) ?
Reply text: t

Inquiry: Tell me the recorded outcome of this test for COc1ccc(C2=Nc3cc(C)ccc3OC2)cc1 .
Reply text: t

Inquiry: In this assay, the call recorded for CCCn1c(=O)c(C(=O)Nc2cc(C)ccn2)c(O)c2ccccc21 was what?
Reply text: f

Inquiry: So what was the verdict on CC1C(=O)Nc2ccccc2N1C(=O)c1c(F)cccc1F (configuration not stated) in this test?
Reply text: f

Inquiry: Which outcome was assigned to CC(=O)CCC(=O)c1ccc2ccccc2c1 in this test?
Reply text: f

Inquiry: Which outcome was entered for the compound C[N+](C)(C)CCNC(=O)c1cc[n+](Cc2ccccc2)c(/C=N/O)c1 in this test?
Reply text: f

Inquiry: Tell me the recorded outcome of this test for COc1ccc(NC(=O)c2cc(-c3ccc(C)cc3)on2)cc1 .
Reply text: f

Inquiry: Which result was noted for this compound in the test: Cc1ccccc1N1CCN(S(=O)(=O)c2ccc3ccccc3c2)CC1
Reply text: f

Inquiry: Called result for CC(=O)c1ccc2c(ccc3ccccc32)c1
Reply text: f

Inquiry: Returns: the outcome recorded for CCCn1c(C(O)c2cc(OC)ccc2OC)nc2ccccc21 (configuration not stated) in this assay.
Reply text: t
